The following binders are shown together with reported FACS Geometric mean (without glutathione, 37° C.) values.
MEASURED_TARGET: T1, EGFRvIII, full length, expressed by transfected cells (NR6 M, H1477, 300.19/EGFRvIII) (human, UniProt P00533 298-1210)
T1 construct: Also used here for Western blots of H1477 lysate; also called native EGFRvIII; mutant EGFR
ASSAY_NOTES: FACS on NR6 M cells, antibody at 0.25 µg/ml with SS Alexa anti-human IgG Fab, 37° C. for 1 hr, no glutathione (total cell-associated fluorescence)
REPORTED_PROPERTY: FACS Geometric mean (without glutathione, 37° C.) (geometric mean)

| BINDER | UNIT | MEASUREMENT |
| --- | --- | --- |
| SC-EGFRvIII-XG2-170 (antibody, human IgG1, V domains shown, XenoMax-derived from an XMG2 mouse; also called SC170; sc170) VH: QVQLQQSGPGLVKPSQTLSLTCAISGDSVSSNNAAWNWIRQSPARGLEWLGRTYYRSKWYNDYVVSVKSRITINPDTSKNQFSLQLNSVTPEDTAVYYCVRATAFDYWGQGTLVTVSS VL: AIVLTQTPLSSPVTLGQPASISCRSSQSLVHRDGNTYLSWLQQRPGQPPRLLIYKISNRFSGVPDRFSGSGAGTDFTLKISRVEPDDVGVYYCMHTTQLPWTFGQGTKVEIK | geometric mean | 20 |
| SC-EGFRvIII-XG2-150 (antibody, human IgG1, V domains shown, XenoMax-derived from an XMG2 mouse; also called sc150; 182D5) VH: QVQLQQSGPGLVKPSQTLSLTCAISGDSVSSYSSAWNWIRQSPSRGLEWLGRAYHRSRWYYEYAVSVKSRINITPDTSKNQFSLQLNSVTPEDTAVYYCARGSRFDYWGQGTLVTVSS VL: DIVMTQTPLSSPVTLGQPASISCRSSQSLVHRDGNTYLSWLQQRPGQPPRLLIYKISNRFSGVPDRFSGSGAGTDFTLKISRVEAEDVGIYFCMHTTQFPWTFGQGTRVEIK | geometric mean | 20.3 |
| AB-EGFRvIII-XG1-095 (antibody, V domains shown, also called SC95; sc95) VH: QVQLQESGPFLVKPSQTLSLTCTVSGGSISSGGYYWSWIRQHPGKGLEWIGFIYYRGNTYYNPSLKSRVTISVDTSKNQFSLKLSSVTAADTAVYYCARDGYCSRTGCYGGWFDPWGQGTLVTVSP VL: DIVMTQTPLSSPVTLGQPASISCRSSQSLIHTDGNIYLSWLQQRPGQPPRLLIYKISNRFSGVPDRFSGSGAGTDFTLKISRVEAEDVGVYYCMQGTQFPITFGQGTRLEIK | geometric mean | 22.6 |
| SC-EGFRvIII-XG1-139 (antibody, V domains shown, also called SC139; sc139) VH: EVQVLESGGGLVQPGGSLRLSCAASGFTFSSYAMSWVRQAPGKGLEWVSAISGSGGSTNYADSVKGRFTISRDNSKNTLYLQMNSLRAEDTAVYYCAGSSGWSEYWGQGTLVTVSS VL: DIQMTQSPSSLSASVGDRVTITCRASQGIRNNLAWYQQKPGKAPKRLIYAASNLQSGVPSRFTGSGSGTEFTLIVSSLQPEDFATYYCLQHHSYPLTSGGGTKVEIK | geometric mean | 22.6 |
| SC-EGFRvIII-XG1-250 (antibody, V domains shown, also called SC250; sc250) VH: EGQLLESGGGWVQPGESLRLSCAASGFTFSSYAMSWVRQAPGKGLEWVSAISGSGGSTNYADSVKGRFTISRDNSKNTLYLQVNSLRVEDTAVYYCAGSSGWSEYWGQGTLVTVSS VL: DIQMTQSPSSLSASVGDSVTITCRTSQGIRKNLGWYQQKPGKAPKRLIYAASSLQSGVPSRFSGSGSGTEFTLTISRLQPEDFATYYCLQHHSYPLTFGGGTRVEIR | geometric mean | 24.1 |
| SC-EGFRvIII-XG1-211 (antibody, V domains shown, also called SC211; sc211) VH: QVQLVESGGGVVQPGRSLRLSCVASGFTLSSYGMHWVRQAPGKGLEWVAVTSYDGSKKDYADSAKGRFTISRDNSKNTLYLQMNSLRAEDTAVYYCVSEGYCSSSSCYKYYYYGMDVWGQGTTVTVSS VL: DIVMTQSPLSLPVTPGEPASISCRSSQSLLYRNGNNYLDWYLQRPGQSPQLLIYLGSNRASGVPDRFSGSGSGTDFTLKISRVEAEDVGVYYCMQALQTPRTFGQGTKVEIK | geometric mean | 20.8 |
